test: Solubility evaluation in water at 25° C.; assay type: physicochemical; settings: water, stirred for 2 days, HPLC
recordedEndpoint: solubility, weight concentration (g/100 g water)

I. CC(C)C[C@H](N)C(=O)O [Leu, L-leucine, reference compound]
II. CC[C@H](C)[C@H](N)C(=O)O [Ile, L-isoleucine, reference compound]
IN: Please indicate which item has the smaller measured solubility, weight concentration: I versus II // return label of chosen record
OUT: I

* * *

test: Solubility evaluation in water at 25° C.; assay type: physicochemical; settings: water, stirred for 2 days, HPLC
recordedEndpoint: solubility, amino acid-converted weight concentration (g/100 g water)

See these solved cases before continuing.
- compound: "CC(C)C[C@H](N)C(=O)N[C@@H]1O[C@H](CO)[C@@H](O)[C@H](O)[C@H]1O"
  resultNumber: 28.3
- compound: "CC[C@H](C)[C@H](N)C(=O)O [Ile, L-isoleucine, reference compound]"
  resultNumber: 4.1

A. CC(C)[C@H](N)C(=O)N[C@@H]1O[C@H](CO)[C@@H](O)[C@H](O)[C@H]1O
B. CC(C)C[C@H](N)C(=O)O [Leu, L-leucine, reference compound]
IN: Higher solubility, amino acid-converted weight concentration: A or B ? // return label of chosen record
OUT: A
(A: 14.1 g/100 g water, B: 2.4 g/100 g water)

* * *

test: Solubility evaluation in water at 25° C.; assay type: physicochemical; conditions: water, stirred for 2 days, HPLC
recordedEndpoint: solubility, amino acid-converted weight concentration (g/100 g water)

- compound: "CC(C)[C@H](N)C(=O)O [Val, L-valine, reference compound]"
  resultNumber: 5.8

P. N[C@@H](Cc1ccc(O)cc1)C(=O)N[C@@H]1O[C@H](CO)[C@@H](O)[C@H](O)[C@H]1O
Q. N[C@@H](Cc1ccc(O)c(O)c1)C(=O)O [DOPA, 3,4-dihydroxy-L-phenylalanine, reference compound]
R. CC[C@H](C)[C@H](N)C(=O)N[C@@H]1O[C@H](CO)[C@@H](O)[C@H](O)[C@H]1O
IN: Order the records by solubility, amino acid-converted weight concentration, with each subsequent value no larger than the one before. // respond by listing labels in the order requested
OUT: R, P, Q
(R: 14.7 g/100 g water, P: 8.92 g/100 g water, Q: 0.31 g/100 g water)

* * *

assay: Solubility evaluation in water at 25° C.; assay type: physicochemical; settings: water, stirred for 2 days, HPLC
recordedEndpoint: solubility, weight concentration (g/100 g water)

See these solved cases before continuing.
- compound: "CC[C@H](C)[C@H](N)C(=O)N[C@@H]1O[C@H](CO)[C@@H](O)[C@H](O)[C@H]1O [Ile-Glc, N-(L-isoleucyl)-β-D-glucopyranosylamine]"
  solubility, weight concentration, g/100 g water: 32.8
- compound: "CC(C)C[C@H](N)C(=O)N[C@@H]1O[C@H](CO)[C@@H](O)[C@H](O)[C@H]1O [Leu-Glc, N-(L-leucyl)-β-D-glucopyranosylamine]"
  solubility, weight concentration, g/100 g water: 63
- compound: "CC(C)[C@H](N)C(=O)O [Val, L-valine, reference compound]"
  solubility, weight concentration, g/100 g water: 5.8

1. CC(C)[C@H](N)C(=O)N[C@@H]1O[C@H](CO)[C@@H](O)[C@H](O)[C@H]1O [Val-Glc, N-(L-valyl)-β-D-glucopyranosylamine]
2. N[C@@H](Cc1ccc(O)c(O)c1)C(=O)O [DOPA, 3,4-dihydroxy-L-phenylalanine, reference compound]
IN: Please indicate which item has the smaller measured solubility, weight concentration: 1 versus 2 // return label of chosen record
OUT: 2
(2: 0.31 g/100 g water, 1: 33.5 g/100 g water)
